In this section we review reported Kd values for a set of binders.
test system: SARS-CoV-2 RBD (receptor binding domain of spike protein of SARS-CoV-2) (SARS-CoV-2, UniProt P0DTC2 319-541)
State the answer as a number, implicitly in nM.

Below, each entry is followed by its recorded Kd result.
{"columns": ["binder", "result units", "Kd"],
 "data": [
  ["Antibody 9-1 (antibody, V domains shown) VH: QLQLQESGPGLVKPSETLSLTCTVSGGSISSSTYYWAWIRQPPGKGLEWIGSIYYSGSTYYNPSLKSRVTISVHTSKNQFSLKLTSVTAADTAVYYCARSMGLHDYWGQGTLVTVSS VL: DIQMTQSPSSLSASVGDRVTITCRASQGIGNSLAWYQQKPGRAPKFLLYAASTLESGVPSRFSGSGSGTHFTLTISSLQPEDFATYFCQQYYSTPPYTFGQGTRLEIK", "nM", 0.835],
  ["Antibody 8-3 (antibody, V domains shown) VH: EVQLVESGGGLVQPGGSLRLSCAASGITVSSNYMNWVRQAPGKGLDWVSVIYSGGSTFYADSVKGRFIISRDNSKNTLFLQMDSLRVEDTAVYYCARDLVVRGVDIWGQGTMVTVSS VL: DIQLTQSPSFLSASVGDRVTITCRASQGISSDLAWYHQKPGKAPKLLIYAASTLQSGVPSRFSGSGSGTEFTLTISSLQPEDFATYYCQQLNSYRGLIFGGGTKVEIK", "nM", 1.55],
  ["Antibody 34-2 (antibody, V domains shown) VH: EVQLVESGGGLVQPGRSLRLSCAASGFTFDESAMHWVRQAPGEGLEWVSGISWNSGRIAYADSVRGRFTISRDNAKNSLYLQMNSLRAEDTALYFCALTTSGWFSFDYWGQGTLVTVSS VL: SYVLTQPPSVSVAPGKTARITCGGNNIGSKSVHWYQQKPGQAPVPVIYYDSDRPSGIPERFSGSNSGNTATLTISRVEVGDEADYYCQVWDSSSDRAVFGGGTTLTVL", "nM", 0.217],
  ["Antibody 29-2 (antibody, V domains shown) VH: QITLKESGPTLVKPTQTLTLTCTFSGFSLSSSGMGVGWIRQPPGKALEWLALIYWNDDKRYSPSLKSRLTITKDTSKNQVVLTLTNMDPVDTATYYCAHTTLYNNCPFDYWGQGTLVTVSS VL: SYVLTQPPSVSVAPGKTARITCGGNNIGSYSVHWYQQRPGQAPVLVIYYDSDRPSGIPERFSGSNSGNTATLTISRVEAGDEADYYCQVWDNSSNHPWVFGGGTKLTVL", "nM", 0.392],
  ["Antibody 5-10 (antibody, V domains shown) VH: EVQLLESGGGLVQPGGSLRLSCAASGFTFSSYAMSWVRQAPGKGLEWVSAIVGSGGSTYYADSVKGRFIISRDNSKNTLYLQMNSLRAEDTAVYYCAKSLIYGHYDILTGAYYFDYWGQGTLVTVSS VL: DIQMTQSPSSVSASVGDRVTIPCRASQGIGNWLAWYQQKPGKAPKLLIYAASSLQSGVPSRFSGSGSGTDFTLTISSLQPEDFATYYCQQANSFPPFGQGTRLEIK", "nM", 4.32]
]}

Now let's try a different one.
Give its Kd value. Item: Antibody 9-8 (antibody, V domains shown) VH: EVQLVESGGGVVQPGGSLRLSCAASGFTFDDYAIHWVRQAPGKGLEWVSLISGDGGTTYYADFVKGRFTISRDNSKNSLYLQMNSLRTEDTALYYCAKDIPVCSSTICYRFTARLHGMDVWGQGTTVTVSS VL: DIQMTQSPSSLSASVGDRVTITCRASQSISSYLNWYQQKPGKAPKLLIYTASSLQSGVPSRFSGSGSGADFTLTISSLQPEDFATYYCQQRYSTPLTFGGGTKVEIK
4.75

Hello, the source for this data is patent US20240262892A1, in case you need it.
